Source listed as patent US20260042753A1.

biological target: mutant cKIT (560-576 and V654A) in GIST430/654 cell line (Homo sapiens (Human), UniProt P10721, DEL560-576/V654A); assay: Cellular testing of cKIT mutant inhibitors: phospho-Y307-cKIT Luminex assay in GIST430/654 cells; format: cell-based; conditions: Table 1; cKIT autophosphorylation, compounds 45 min; read-out: GIST 430/654 IC50
Sequence (P10721 other isoform, or with tags, fused parts or gaps V654A/del 1-25/del 560-576 limits assumed): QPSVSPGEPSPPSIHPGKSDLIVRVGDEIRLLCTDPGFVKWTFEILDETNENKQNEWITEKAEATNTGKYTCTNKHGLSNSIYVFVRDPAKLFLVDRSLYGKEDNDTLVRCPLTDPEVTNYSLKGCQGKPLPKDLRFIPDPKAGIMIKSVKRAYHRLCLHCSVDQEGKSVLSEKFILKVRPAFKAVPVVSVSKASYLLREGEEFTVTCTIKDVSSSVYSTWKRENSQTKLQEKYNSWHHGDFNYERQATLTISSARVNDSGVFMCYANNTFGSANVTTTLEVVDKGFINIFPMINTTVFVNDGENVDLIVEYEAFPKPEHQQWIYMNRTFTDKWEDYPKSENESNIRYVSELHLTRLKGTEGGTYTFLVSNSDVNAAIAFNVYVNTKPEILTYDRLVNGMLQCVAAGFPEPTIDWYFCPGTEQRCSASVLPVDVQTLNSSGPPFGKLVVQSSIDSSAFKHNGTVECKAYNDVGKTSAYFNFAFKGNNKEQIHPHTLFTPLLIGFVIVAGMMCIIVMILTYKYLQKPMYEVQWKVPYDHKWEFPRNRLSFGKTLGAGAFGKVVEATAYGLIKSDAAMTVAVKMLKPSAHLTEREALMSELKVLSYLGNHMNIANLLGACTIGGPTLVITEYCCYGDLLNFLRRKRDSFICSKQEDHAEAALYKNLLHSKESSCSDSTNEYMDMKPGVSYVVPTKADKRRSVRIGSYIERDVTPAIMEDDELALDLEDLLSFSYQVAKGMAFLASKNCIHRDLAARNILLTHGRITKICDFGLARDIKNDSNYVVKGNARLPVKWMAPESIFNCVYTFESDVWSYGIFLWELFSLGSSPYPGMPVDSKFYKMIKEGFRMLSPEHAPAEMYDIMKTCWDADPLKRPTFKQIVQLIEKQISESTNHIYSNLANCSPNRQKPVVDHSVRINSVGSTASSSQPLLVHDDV
For each entry below, report its IC50 value.
One number for each entry, in nM.

Below: 2 molecules and their reported IC50.
1) COCCOc1cc2[nH]nc(-c3cc(-c4ccc(C(=O)N5CCOC[C@@H]5CS(C)(=O)=O)cc4)no3)c2cc1F: 120
2) COCCOc1cc2[nH]nc(-c3cc(-c4ccc(C(=O)N5CCC56COC6)c(C)c4)no3)c2cc1F: 44

State the recorded IC50 for every item in the following list.
1. COCCOc1cc2[nH]nc(-c3cc(-c4ccc(C(=O)N5CC[C@H]5C(C)(C)O)nc4)no3)c2cc1F
2. COCCOc1cc2[nH]nc(-c3cc(-c4ccc(C(=O)N5CC(N6CCCCC6)C5)cc4)no3)c2cc1F

Reply text:
640
65

---

target: mutant cKIT (560-576 and V654A) in GIST430/654 cell line (Homo sapiens (Human), UniProt P10721, DEL560-576/V654A); test: Cellular testing of cKIT mutant inhibitors: phospho-Y307-cKIT Luminex assay in GIST430/654 cells; assay type: cell-based; conditions: Table 1; cKIT autophosphorylation, compounds 45 min; read-out: GIST 430/654 IC50
For each entry below, report its IC50 value.
Numbers only, in nM.

1) COCCOc1cc2[nH]nc(-c3cc(-c4ccc(N5CCN(C)CC5)cc4)no3)c2cc1F: 79
2) COCCOc1cc2[nH]nc(-c3cc(-c4ccc(C(=O)N5CCN(C6CCOC6)CC5)cc4)no3)c2cc1F (centres unmarked): 43
3) COCCOc1cc2[nH]nc(-c3cc(-c4ccc(C(=O)N5CCN(C)C[C@@H]5C)cc4)on3)c2cc1C#N: 170
4) COCCOc1cc2[nH]nc(-c3cc(-c4ccc(C(=O)N5C[C@@H]6CS(=O)(=O)C[C@@H]6C5)cc4)no3)c2cc1F: 43
5) O=C(c1ccc(-c2cc(-c3n[nH]c4cc(OCCO)c(F)cc34)on2)cc1)N1CCN(C2COC2)CC1: 130
6) COCCOc1cc2[nH]nc(-c3cc(-c4ccc(C(=O)N5CC(c6cncnc6)C5)cc4)no3)c2cc1F: 41
7) COCCOc1cc2[nH]nc(-c3cc(-c4ccc(C(=O)N5CC(N6CCO[C@@H](C)C6)C5)cc4)no3)c2cc1F: 30

Inquiry: Can you look up the measured IC50 of CC(C)(O)[C@@H]1CCCN1C(=O)c1ccc(-c2cc(-c3n[nH]c4cc(Br)ccc34)on2)cc1 for me?
Reply text: 330

---

target: mutant cKIT (560-576 and V654A) in GIST430/654 cell line (Homo sapiens (Human), UniProt P10721, DEL560-576/V654A); test: Cellular testing of cKIT mutant inhibitors: phospho-Y307-cKIT Luminex assay in GIST430/654 cells; format: cell-based; settings: Table 1; cKIT autophosphorylation, compounds 45 min; read-out: GIST 430/654 IC50
OBSERVATION TYPE: IC50 (nM)
Answers are plain numbers, in nM.

1) COCCOc1cc2[nH]nc(-c3cc(-c4ccc(C(=O)N5CCNCC5)cc4)no3)c2cc1F: 58
2) COCCOc1cc2[nH]nc(-c3cc(-c4ccc(C(=O)N5CCO[C@H](C)C5)cc4)no3)c2cc1F: 66
3) COCCOc1cc2[nH]nc(-c3cc(-c4ccc(C(=O)N5CCC[C@H]5CO)cc4)no3)c2cc1F: 57
4) COCCOc1cc2[nH]nc(-c3cc(-c4ccc(C(=O)N5CC(C#N)C5)cc4)no3)c2cc1F: 39
5) COCCOc1cc2[nH]nc(-c3cc(-c4ccc(C(=O)N5CCN(C)C[C@@H]5C)cc4)no3)c2cc1F: 38
6) COCCOc1cc2[nH]nc(-c3cc(-c4ccc(-n5nc(C)ccc5=O)cc4)no3)c2cc1F: 140

State the recorded IC50 for every item in the following list.
1. COCCOc1cc2[nH]nc(-c3cc(-c4ccc(C5CCN(C)CC5(C)C)cc4)no3)c2cc1F (centres unmarked)
2. COCCOc1cc2[nH]nc(-c3cc(-c4cnn(C)c4)no3)c2cc1F

Reply text:
1: 52; 2: 180

---

biological target: mutant cKIT (560-576 and V654A) in GIST430/654 cell line (Homo sapiens (Human), UniProt P10721, DEL560-576/V654A); assay: Cellular testing of cKIT mutant inhibitors: phospho-Y307-cKIT Luminex assay in GIST430/654 cells; type: cell-based; details: Table 1; cKIT autophosphorylation, compounds 45 min; read-out: GIST 430/654 IC50
OBSERVATION TYPE: pIC50
One number for each entry, as −log10 of the molar value.

Below: 3 compounds and their reported pIC50.
1) COCCOc1cc2[nH]nc(-c3cc(-c4ccc(C(=O)N5CC(c6cccnc6)C5)cc4)no3)c2cc1F [A192]: 7.85
2) C[C@H]1CN(C)CCN1C(=O)c1ccc(-c2cc(-c3n[nH]c4cc(C(F)(F)F)ccc34)on2)cc1 [A50]: 6.14
3) COCCOc1cc2[nH]nc(-c3cc(-c4ccc(C(=O)N5CCOCC5)cc4)on3)c2cc1F [A43]: 6.92

# evaluate next
Inquiry: Can you look up the measured pIC50 of COCCOc1cc2[nH]nc(-c3cc(-c4ccc(C(=O)N5CC(F)C5)cc4)no3)c2cc1F [A26] for me?
Reply text: 7.35

---

target: c-Kit(V654A) (Homo sapiens, UniProt P10721, V654A); assay: c-Kit(V654A) assay; assay type: biochemical; conditions: Table 1; 200 μM ATP
OBSERVATION TYPE: IC50 (nM)
One number for each entry, in nM.

1) COCCOc1cc2[nH]nc(-c3cc(-c4ccc(C(=O)N5CCN(C)C(=O)C5)cc4)no3)c2cc1F [A116]: 4.1
2) COCCOc1cc2[nH]nc(-c3cc(-c4ccc(C(=O)N5CCN(C(CO)CO)CC5)cc4)no3)c2cc1F [A228]: 570
3) COCCOc1cc2[nH]nc(-c3cc(-c4ccc(C(=O)N5CC(N6CCOCC6=O)C5)cc4)no3)c2cc1F [A204]: 0.88

State the recorded IC50 for every item in the following list.
1. COCCOc1cc2[nH]nc(-c3cc(-c4ccc(N5CCCN(C)CC5)cc4)no3)c2cc1F [A123]
2. [2H]C1([2H])N(C(=O)c2ccc(-c3cc(-c4n[nH]c5cc(OCCO)c(F)cc45)on3)cc2)C([2H])([2H])C([2H])([2H])N(C2COC2)C1([2H])[2H] [A234]
3. O=C(c1ccc(-c2cc(-c3n[nH]c4cc(OCCO)c(F)cc34)on2)cc1)N1CCN(C2COC2)CC1 [A205]
4. COCCOc1cc2[nH]nc(-c3cc(-c4ccc(N5CCC(O)CC5)cc4)no3)c2cc1F [A128]

Reply text:
1: 0.39; 2: 0.9; 3: 23; 4: 0.79

---

For each entry below, report its pIC50 value.
target: c-Kit(V654A) (Homo sapiens, UniProt P10721, V654A); assay: c-Kit(V654A) assay; assay type: biochemical; settings: Table 1; 200 μM ATP
Where a name gives a salt, the structure may show the parent alone.
One number for each entry, as −log10 of the molar value.

Below: 6 compounds and their reported pIC50.
1. COCCOc1cc2[nH]nc(-c3cc(-c4ccc(C(=O)N5CCOC[C@@H]5COC)cc4)no3)c2cc1F [A110]: 9.12
2. COCCOc1cc2[nH]nc(-c3cc(-c4ccc(C(=O)N5CC(N6CCOCC6)C5)cc4)no3)c2cc1Cl [A64]: 9.28
3. COCCOc1cc2[nH]nc(-c3cc(-c4ccc(C(=O)N5CC(N6CCOCC6)C5)c(C)c4)no3)c2cc1F [A171]: 8.85
4. COCCOc1cc2[nH]nc(-c3cc(-c4ccc(C(=O)N5CCOC[C@H]5CO)cc4)no3)c2cc1F [A105]: 8.92
5. [2H]C1([2H])NC([2H])([2H])C([2H])([2H])N(C(=O)c2ccc(-c3cc(-c4n[nH]c5cc(OCCOC)c(F)cc45)on3)cc2)C1([2H])[2H] [A232, hydrochloride]: 10.05
6. COCCOc1cc2[nH]nc(-c3cc(-c4ccc(C(=O)N5CCCOCC5)cc4)no3)c2cc1F [A44]: 8.96

# evaluate next
Inquiry: Can you look up the measured pIC50 of COCCOc1cc2[nH]nc(-c3cc(-c4ccc(C(=O)N5CCOC[C@H]5CO)cc4)no3)c2cc1Cl [A67] for me?
Reply text: 9.06
